Overview of recorded Diameter (nm) for various molecules
# ASSAY DETAILS: Diameter and PDI from DLS measurements of mRNA nanoparticles with lipid amines
# Type: physicochemical
# ASSAY CONDITIONS: Luciferase mRNA nanoparticle modified with lipid amine
Where a name gives a salt, the structure may show the parent alone.
Supply the numeric figure in nm, leaving out any unit text.

// known answers, use as guide
MOLECULE: CC[C@H](CC[C@@H](C)[C@H]1CC[C@H]2[C@@H]3CC=C4C[C@@H](OC(=O)CCCC(=O)N(CCCN)CCCCNCCCN)CC[C@]4(C)[C@H]3CC[C@]12C)C(C)C [SA117, trihydrochloride]
ASSAY VALUE: 77
//
MOLECULE: CC[C@H](CC[C@@H](C)[C@H]1CC[C@H]2[C@@H]3CC=C4C[C@@H](OC(=O)CCCC(=O)N(CCCCNCCC(N)(CC)CC)CCC(N)(CC)CC)CC[C@]4(C)[C@H]3CC[C@]12C)C(C)C [SA182, trihydrochloride]
ASSAY VALUE: 73
//
MOLECULE: CC(C)CCC[C@@H](C)[C@H]1CC[C@H]2[C@@H]3CC=C4C[C@@H](OC(=O)N(CCCCNCC(C)CN)CC(C)CN)CC[C@]4(C)[C@H]3CC[C@]12C (stereo partly drawn) [SA75, trihydrochloride]
ASSAY VALUE: 74
//
MOLECULE: CC(C)CCC[C@@H](C)[C@H]1CC[C@H]2[C@@H]3CC=C4C[C@@H](OC(=O)CN(CCCCCCCCN)C(=O)CCCCN)CC[C@]4(C)[C@H]3CC[C@]12C [SA122, dihydrochloride]
ASSAY VALUE: 75
//
MOLECULE: CC(C)CCC[C@@H](C)[C@H]1CC[C@H]2[C@@H]3CC=C4C[C@@H](OC(=O)CCCC(=O)N(CCCN)CCCCCCCCN)CC[C@]4(C)[C@H]3CC[C@]12C.Cl.Cl [SA134]
ASSAY VALUE: 72

Now consider the entry below.
Asked: # query: Diameter (nm) of entry CC(C)CCC[C@@H](C)[C@H]1CC[C@H]2[C@@H]3CC=C4C[C@@H](OC(=O)CC(=O)N(CCCN)CCCCNCCCN)CC[C@]4(C)[C@H]3CC[C@]12C.Cl.Cl.Cl [SA59]
Given back: 74

---

As shown below, each of these compounds has a reported PDI value.
# ASSAY DETAILS: Diameter and PDI from DLS measurements of mRNA nanoparticles with lipid amines
# Type: physicochemical
# ASSAY CONDITIONS: Luciferase mRNA nanoparticle modified with lipid amine
# Method: Lipids are dissolved in ethanol at a concentration of 24 mg/mL and molar ratios of 49.0:11.2:39.3:0.5 (IL1:DSPC:cholesterol:PEG-DMG-2K) and mixed with the acidification buffer (45 mM acetate buffer at pH 4). The lipid solution and acidification buffer are mixed using a multi-inlet vortex mixer at a 3:7 volumetric ratio of lipid:buffer for mixer 1 and mixer 2 and a 1:3 volumetric ratio of lipid:buffer (25% ethanol) for mixer 3. […]
Counter-ions that a name gives are not always drawn.
# print the numeric value only

COMPOUND: CC[C@H](CC[C@@H](C)[C@H]1CC[C@H]2[C@@H]3CC=C4C[C@@H](OC(=O)CN(CCCN)CCCCNCCCN)CC[C@]4(C)[C@H]3CC[C@]12C)C(C)C
PDI: 0.18
--
COMPOUND: CC(C)CCC[C@@H](C)[C@H]1CC[C@H]2[C@@H]3CC=C4C[C@@H](OC(=O)CN(CCCN)CCCCCCCCN)CC[C@]4(C)[C@H]3CC[C@]12C [SA71, trihydrochloride]
PDI: 0.15

Now take the following compound into account.
Asked: If you can, please state the reported PDI value of CC(C)CCC[C@@H](C)[C@H]1CC[C@H]2[C@@H]3CC=C4C[C@@H](OC(=O)CCC(=O)N(CCCN)CCCCCCCCN)CC[C@]4(C)[C@H]3CC[C@]12C [SA72, dihydrochloride] .
Given back: 0.11
